# STK11 functional score values compiled below
B1: library; numbered along this chain (parent)
chain: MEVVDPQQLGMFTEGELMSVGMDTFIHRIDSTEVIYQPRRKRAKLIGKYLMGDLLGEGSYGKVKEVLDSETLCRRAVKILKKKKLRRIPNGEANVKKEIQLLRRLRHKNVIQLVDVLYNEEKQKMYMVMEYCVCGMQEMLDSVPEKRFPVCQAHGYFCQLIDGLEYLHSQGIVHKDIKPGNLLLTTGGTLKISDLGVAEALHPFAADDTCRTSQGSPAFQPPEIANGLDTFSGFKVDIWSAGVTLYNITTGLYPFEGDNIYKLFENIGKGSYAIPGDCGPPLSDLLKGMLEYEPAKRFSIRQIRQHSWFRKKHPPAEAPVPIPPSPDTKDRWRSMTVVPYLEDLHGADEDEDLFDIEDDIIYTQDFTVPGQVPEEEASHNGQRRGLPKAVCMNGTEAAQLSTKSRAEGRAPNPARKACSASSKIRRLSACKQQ

# Variants of: B1
# assay_protocol: STK11 functional score (HeLa growth suppression), rescaled enrichment; synonymous median = 1, nonsense median = 0 (normalised score)
# experimental_setup: with HeLa; variant type: missense

mutations | STK11 functional score
W332R | 1.55
A389Q | 1.18
S283G | 1.19
S193Y | -0.104
A410L | 1.42
K403N | 1.42
M289D | 0.312
R405K | 1.33
P144D | 1.46
H168M | 0.519
I172A | 1.02
D277V | 1.23
V77G | 0.0665
L45A | 0.863
V368Q | 0.833
I79Y | -0.0325
K97C | 0.937
S404E | 1.34
P387T | 1.56
S169T | 1.22
T395E | 1.33
D5H | 1.13
Q382F | 1.14
N380I | 1.04
D68G | 1.08
G215V | 0.788
I172F | 0.904
C73R | 1.21
L183D | 0.119
R415I | 0.924
K41V | 1.36
K262I | 0.763
H306R | 0.628
L54P | 1.21
S31L | 1.02
V143P | -0.133
F255M | 0.792
